B1: scFv; the commonest letter at each place (parent)
chain 1: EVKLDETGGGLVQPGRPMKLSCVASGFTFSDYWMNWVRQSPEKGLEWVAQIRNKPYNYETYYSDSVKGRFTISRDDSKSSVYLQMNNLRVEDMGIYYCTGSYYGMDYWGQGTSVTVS
chain 2: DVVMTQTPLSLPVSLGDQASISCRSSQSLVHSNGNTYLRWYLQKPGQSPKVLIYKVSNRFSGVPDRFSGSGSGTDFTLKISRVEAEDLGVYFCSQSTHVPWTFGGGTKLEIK

# Variants of: B1
# protocol: Kd (Tite-Seq)
# measurement conditions: with fluorescein; format: scFv 4-4-20, heavy + light
pKd: −log10 of the molar value.
# pKd values compiled below

Reported pKd for chain 1 D31P W36I : what is it?
≤ 5.00

Can you look up the measured pKd of chain 1 G100R Y102I for me?
≤ 5.00

Would you kindly share the measured pKd for chain 1 S101N ?
≤ 5.00

Would you kindly share the measured pKd for chain 1 D106F Y107G ?
≤ 5.00

Fill in: pKd of chain 1 Y102C W108I is ___
≥ 9.50

Param item = chain 1 W33N ; retrieve measured pKd.
≤ 5.00

Reported pKd for chain 1 G100C D106G : what is it?
≤ 5.00

Data request, read-out pKd, for chain 1 Y32G
5.79

Which pKd value belongs to chain 1 F29S W33H ?
≤ 5.00
